UniProt O42275: recorded pIC50 for assorted compounds
Sequence (O42275 24-633): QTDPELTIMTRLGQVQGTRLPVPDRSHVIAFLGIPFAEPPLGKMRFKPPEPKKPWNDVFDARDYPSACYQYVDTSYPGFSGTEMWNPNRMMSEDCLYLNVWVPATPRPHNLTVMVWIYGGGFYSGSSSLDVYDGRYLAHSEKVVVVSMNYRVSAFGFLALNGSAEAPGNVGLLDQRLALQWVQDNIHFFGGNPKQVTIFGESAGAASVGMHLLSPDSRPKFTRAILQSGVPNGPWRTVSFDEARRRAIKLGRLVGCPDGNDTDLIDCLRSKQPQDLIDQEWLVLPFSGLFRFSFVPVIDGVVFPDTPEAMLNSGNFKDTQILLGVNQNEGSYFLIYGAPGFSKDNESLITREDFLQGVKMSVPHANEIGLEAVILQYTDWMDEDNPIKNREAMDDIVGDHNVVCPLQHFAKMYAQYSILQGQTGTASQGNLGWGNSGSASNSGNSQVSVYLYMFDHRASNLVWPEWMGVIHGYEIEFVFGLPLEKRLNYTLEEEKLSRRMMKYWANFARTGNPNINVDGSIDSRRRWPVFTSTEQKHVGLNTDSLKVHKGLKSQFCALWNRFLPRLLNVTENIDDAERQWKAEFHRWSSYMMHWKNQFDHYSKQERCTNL
Numbers only, as −log10 of the molar value.

[
  {
    "Compound": "COc1cccc(C=NNC(=O)c2cccnc2)c1OC(=O)c1ccc(N(C)C)cc1",
    "pIC50": 7.36
  },
  {
    "Compound": "CN(C)c1ccc(C(=O)Oc2ccccc2C=O)cc1 [compound 1, 2-Formylphenyl 4-(Dimethylamino)benzoate]",
    "pIC50": 7.29
  },
  {
    "Compound": "CN(C)c1ccc(C(=O)Oc2ccc(C=NNC(=O)c3cccnc3)cc2)cc1",
    "pIC50": 7.33
  },
  {
    "Compound": "CN(C)c1ccc(C(=O)Oc2ccc(C=O)cc2)cc1 [compound 2, 4-Formylphenyl 4-(Dimethylamino)benzoate]",
    "pIC50": 7.31
  },
  {
    "Compound": "COc1cc(C=O)ccc1OC(=O)c1ccc(N(C)C)cc1",
    "pIC50": 7.21
  }
]

I would be grateful if you could provide pIC50 for each of the following entries.
1. COc1ccc(C=NNC(=O)c2cccnc2)cc1OC(=O)c1ccc(N(C)C)cc1
2. COc1cccc(C=O)c1OC(=O)c1ccc(N(C)C)cc1
3. COc1cc(C=NNC(=O)c2cccnc2)ccc1OC(=O)c1ccc(N(C)C)cc1
4. CN(C)c1ccc(C(=O)Oc2ccc3ccccc3c2C=NNC(=O)c2cccnc2)cc1
5. CN(C)c1ccc(C(=O)Oc2ccccc2C=NNC(=O)c2cccnc2)cc1

Reply text:
7.53
7.23
7.54
7.67
7.31

I would be grateful if you could provide pIC50 for each of the following entries.
1. CN(C)c1ccc(C(=O)Oc2ccc3ccccc3c2C=O)cc1
2. COc1ccc(C=O)cc1OC(=O)c1ccc(N(C)C)cc1

Reply text:
1. 7.55
2. 7.22

----------
UniProt:P00918: recorded IC50 for assorted molecules
Returns: string containing the number followed by the unit.

In the examples that follow, each entry is paired with its recorded IC50.
[
  {
    "Molecule": "COc1cc(C=O)ccc1OC(=O)c1ccc(N(C)C)cc1 [compound 5]",
    "Target Under Test": "UniProt:P00918",
    "IC50": "20.4 nM"
  },
  {
    "Molecule": "CN(C)c1ccc(C(=O)Oc2ccccc2C=NNC(=O)c2cccnc2)cc1 [compound 7]",
    "Target Under Test": "UniProt:P00918",
    "IC50": "8.03 nM"
  },
  {
    "Molecule": "CN(C)c1ccc(C(=O)Oc2ccc3ccccc3c2C=O)cc1 [compound 6]",
    "Target Under Test": "UniProt:P00918",
    "IC50": "24.7 nM"
  },
  {
    "Molecule": "COc1cc(C=NNC(=O)c2cccnc2)ccc1OC(=O)c1ccc(N(C)C)cc1 [compound 11]",
    "Target Under Test": "UniProt:P00918",
    "IC50": "11.6 nM"
  }
]

I would be grateful if you could provide IC50 for each of the following entries.
1. CN(C)c1ccc(C(=O)Oc2ccc3ccccc3c2C=NNC(=O)c2cccnc2)cc1 [compound 12]
2. COc1cccc(C=O)c1OC(=O)c1ccc(N(C)C)cc1 [compound 3]
3. COc1cccc(C=NNC(=O)c2cccnc2)c1OC(=O)c1ccc(N(C)C)cc1 [compound 9]
4. CN(C)c1ccc(C(=O)Oc2ccccc2C=O)cc1 [compound 1, 2-Formylphenyl 4-(Dimethylamino)benzoate]
5. COc1ccc(C=NNC(=O)c2cccnc2)cc1OC(=O)c1ccc(N(C)C)cc1 [compound 10]
6. CN(C)c1ccc(C(=O)Oc2ccc(C=NNC(=O)c3cccnc3)cc2)cc1 [compound 8]
7. CN(C)c1ccc(C(=O)Oc2ccc(C=O)cc2)cc1 [compound 2, 4-Formylphenyl 4-(Dimethylamino)benzoate]

Reply text:
1: 23.5 nM; 2: 16.1 nM; 3: 12.5 nM; 4: 13.7 nM; 5: 11.8 nM; 6: 7.12 nM; 7: 12.2 nM

Inquiry: What measured IC50 goes with COc1ccc(C=O)cc1OC(=O)c1ccc(N(C)C)cc1 [compound 4] ?
Reply text: 15.4 nM
